This collection of values is drawn from ChEMBL document CHEMBL1153873.

Organism: Oryctolagus cuniculus
assay-name: Stimulation of antithrombin-3-induced inhibition of alpha-thrombin in rabbit plasma assessed as [125I]-thrombin-antithrombin-3 complex formation by SDS-PAGE and autoradiography
Format: cell-free
Active and inactive are the calls of the source. The rule behind the calls is not given here.
assay-metric: Activity

>>> readout_value("COC(=O)/C(C(=O)Nc1nccs1)=C1/SC=C(c2ccccc2)N1c1ccccc1")
"inactive"
>>> readout_value("O=C(CC(=O)NN1C(=O)c2c(Cl)c(Cl)c(Cl)c(Cl)c2C1=O)Nc1nccs1")
"inactive"
>>> readout_value("CCOC(=O)C1=NN(c2ccc(Cl)cc2)/C(=C(/C(=O)Nc2nccs2)C(=O)OC)S1")
"inactive"
>>> readout_value("O=C(CC(=O)Nn1c(-c2ccccc2)csc1=S)Nc1nccs1")
"inactive"
>>> readout_value("COC(=O)/C(C(=O)Nc1nccs1)=C1/SC(C(C)=O)=NN1c1ccc(S(=O)(=O)N2C(=O)c3c(Cl)c(Cl)c(Cl)c(Cl)c3C2=O)cc1")
"inactive"
